# system name: mouse RORγ (Mus musculus)
# Construct: mouse, NM_011281.2 and from Ile251 to Lys516; expressed in transfected cells; host or cells: CHO cells (transient co-transfection with pG5-Luc reporter)
# Sequence (P51450 251-516): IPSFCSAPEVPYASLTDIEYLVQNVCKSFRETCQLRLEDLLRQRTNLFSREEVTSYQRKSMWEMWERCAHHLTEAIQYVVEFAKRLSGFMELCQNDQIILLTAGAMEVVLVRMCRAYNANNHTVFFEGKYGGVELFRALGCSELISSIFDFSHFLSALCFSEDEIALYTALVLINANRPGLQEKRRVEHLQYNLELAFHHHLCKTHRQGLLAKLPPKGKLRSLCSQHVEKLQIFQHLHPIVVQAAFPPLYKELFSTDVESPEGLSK
# method: Luciferase reporter gene assay of inhibitory effect against RORγ transcriptional activity (GAL4-mRORγ plasmid in CHO cells)
# Assay type: cell-based
# assay conditions: read-out: LUC EC50 (μM) mRORg
Entries annotated with measured EC50
measure: EC50

>>> df
                                   compound                system_name  measure  recorded_measurement
0  CC(=O)NCCC(CC(=O)Nc1ccc(C)cc1C)c1nnc(CCCC(C)C)n1C1CC1 (racemic) [Example F-275]  mouse RORγ (Mus musculus)     EC50                > 3 µM
1  Cc1ccc(NC(=O)C[C@H](CCC(=O)O)c2noc(-c3cc(CC(C)C)n(C)n3)c2C2CC2)c(Cl)c1 [Example E-26]  mouse RORγ (Mus musculus)     EC50                < 3 µM
2  COc1cc(C)ccc1CNC(=O)CCc1nnc(CC[C@H]2CC[C@H](C(F)(F)F)CC2)n1C1CC1 [Example F-251]  mouse RORγ (Mus musculus)     EC50                < 3 µM
3  CCc1c(CCC(=O)Nc2cccc3ccccc23)noc1C1Cc2ccccc2C1 [Example F-14]  mouse RORγ (Mus musculus)     EC50                < 3 µM
4  Cc1cc(Cl)ccc1NC(=O)CCc1nnc(CCC(C)C)n1C1CC1 [Example F-138]  mouse RORγ (Mus musculus)     EC50                < 3 µM
5  Cc1ccc(O)cc1NC(=O)CCc1nnc(CCC(C)C)n1C1CC1 [Example F-192]  mouse RORγ (Mus musculus)     EC50                > 3 µM
6  CCc1ccc(CNC(=O)CCc2nnc(CCC(C)C)n2C2CC2)cc1 [Example F-124]  mouse RORγ (Mus musculus)     EC50                > 3 µM
7  CNC(=O)CC(CC(=O)Nc1ccc(C)cc1C)c1nnc(CCCC(C)C)n1C1CC1 (racemic) [Example F-265]  mouse RORγ (Mus musculus)     EC50                < 3 µM
